- Measurement protocol: melting temperature; fluorescence melt of hairpins on a sequencing array, two-state fit, raised by 9.35 °C to match UV melts
- Conditions used: sodium 0.088 M
Property measured: Tm

Input sequence: GGAGGGGGAAACCCTTCC (((.(((....))).)))
Result: 49.2 °C

Input sequence: GATCGAGTTATCGATC ((((((....))))))
Result: 58.6 °C

Input sequence: ATCTTGAAAAAGAT (((((....)))))
Result: 32.9 °C

Input sequence: GCGTCGCGAAAGCCATGC ((.(.((....)).).))
Result: 41.5 °C

Input sequence: GATCCTGGAAACAGGGTC ((.((((....)))).))
Result: 50.8 °C

Input sequence: GTTCGGACGAAAGTCAAC (((..(((....))))))
Result: 29.1 °C

Input sequence: GACAGAGGAAACTTTGTC ((((.((....)).))))
Result: 36.7 °C

Input sequence: GATCGTTTGCACGATC ((((((....))))))
Result: 54.7 °C

Input sequence: GATCCGATTACGGATC ((((((....))))))
Result: 58.4 °C

Input sequence: GACCAGCGAAAGCTTGTC (((.(((....))).)))
Result: 47.8 °C

Input sequence: GCCAACCGAAAGGTAGGC (((.(((....))).)))
Result: 60.4 °C

Input sequence: GATCGATACATCGATC ((((((....))))))
Result: 55.9 °C

====

# key: entry, value: folding enthalpy
- Measurement protocol: folding enthalpy; higher = less favourable; fluorescence melt of hairpins on a sequencing array, two-state fit
- Conditions used: sodium 0.088 M

Input sequence: GTGGTGCCGAAAGGCCAC (((..(((....))))))
folding enthalpy [kcal/mol]: -12.8

Input sequence: GATCGGTACGCCGATC ((((((....))))))
folding enthalpy [kcal/mol]: -38.6

Input sequence: GCCGAACCGAAAGGTGGC (((..(((....))))))
folding enthalpy [kcal/mol]: -26.4

Input sequence: GGTAAAGGAAACCTTACC (((((.(....).)))))
folding enthalpy [kcal/mol]: -22

Input sequence: GGAACTGAAAAGTTCC ((((((....))))))
folding enthalpy [kcal/mol]: -38.3

Input sequence: GGGCATCCGAAAGGACCC (((..(((....))))))
folding enthalpy [kcal/mol]: -18.3

====

- Measurement protocol: melting temperature; fluorescence melt of hairpins on a sequencing array, two-state fit, raised by 9.35 °C to match UV melts
- Conditions used: sodium 0.088 M
# key: entry, value: Tm

Input sequence: GGCCTTGGAAACAAAGCC (((.(((....))).)))
Unit of measure: °C
Tm: 38.9
//
Input sequence: GGACCCCGAAAGGGTTCC (((.(((....))).)))
Unit of measure: °C
Tm: 52.5
//
Input sequence: GCTGATCGAAAGATAAGC (((.(((....))).)))
Unit of measure: °C
Tm: 49.5
//
Input sequence: GCTACGCGAAAGCGACGC ((..(((....)))..))
Unit of measure: °C
Tm: 40.2
//
Input sequence: GTCATAGAAATATGAC ((((((....))))))
Unit of measure: °C
Tm: 45.6
//
Input sequence: GACAACGAAAGTTAGTC ((((((....))).)))
Unit of measure: °C
Tm: 42.4
//
Input sequence: GGAGAAGGAAACTTCTCC (((((((....)))))))
Unit of measure: °C
Tm: 57.7
//
Input sequence: GCGTAGGGAAACCCACAC (.((.((....)).)).)
Unit of measure: °C
Tm: 21.3
//
Input sequence: GATCTGCCTACAGATC ((((((....))))))
Unit of measure: °C
Tm: 50.8
//
Input sequence: GTCACTGGAAACAATGAC ((((.((....)).))))
Unit of measure: °C
Tm: 35
//
Input sequence: GAGGACGAAAGTCCCTC ((((((....))).)))
Unit of measure: °C
Tm: 51.2
//
Input sequence: GGATAGACGAAAGTCTCC (((..(((....))))))
Unit of measure: °C
Tm: 33.6
//
Input sequence: GTCAATCGAAAGATAGAC (((.(((....))).)))
Unit of measure: °C
Tm: 43.5
//
Input sequence: GATCCCCCTAGGGATC ((((((....))))))
Unit of measure: °C
Tm: 61.3
//
Input sequence: GCTGAGCGAAAGCATAGC (((..((....))..)))
Unit of measure: °C
Tm: 50
//
Input sequence: GATCGACGCATCGATC ((((((....))))))
Unit of measure: °C
Tm: 52.6
//
Input sequence: TCACTGAAAAGTGA (((((....)))))
Unit of measure: °C
Tm: 43.4
//
Input sequence: GATCTATCCATAGATC ((((((....))))))
Unit of measure: °C
Tm: 46.5
//
Input sequence: GACCCCGAAAGGGACGTC ((((((....)))..)))
Unit of measure: °C
Tm: 40.4
//
Input sequence: GATATACGAAAGTACATC (((.(((....))).)))
Unit of measure: °C
Tm: 30.5
//
Input sequence: GCTTTTGCGAAAGCAAGC (((..(((....))))))
Unit of measure: °C
Tm: 35
//
Input sequence: GTTGGGACGAAAGTCAAC (((..(((....))))))
Unit of measure: °C
Tm: 41.5
//
Input sequence: GTATGCACGAAAGTGTAC (((..(((....))))))
Unit of measure: °C
Tm: 31.1
//
Input sequence: GTTGGCGGAAACGCCGAC ((.((((....)))).))
Unit of measure: °C
Tm: 59.4
//
Input sequence: GCTCTGTCGAAAGACAGC (((..(((....))))))
Unit of measure: °C
Tm: 36.5

====

- Measurement protocol: folding enthalpy; higher = less favourable; fluorescence melt of hairpins on a sequencing array, two-state fit
- Conditions used: sodium 0.088 M
Label scheme for folding enthalpy: lower than -90 kJ/mol is 0, -90 kJ/mol and above is 1.

Input sequence: CGACTCGGAAACGACTCG (((.(((....))).)))
Group: 0
//
Input sequence: AGAAGGAAACTTCT (((((....)))))
Group: 1
//
Input sequence: GTCATGCCGAAAGGCGAC (((..(((....))))))
Group: 1
//
Input sequence: GATCCTCATCAGGATC ((((((....))))))
Group: 0
//
Input sequence: GCGAACGAAAGTTCTCGC ((((((....)))..)))
Group: 1

====

- Measurement protocol: melting temperature; fluorescence melt of hairpins on a sequencing array, two-state fit, raised by 9.35 °C to match UV melts
- Conditions used: sodium 0.088 M
Label scheme for Tm: lower than 40 °C is false, 40 °C and above is true.

Input sequence: GACTTTGGAAACAGAGTC ((((.((....)).))))
Group: false
//
Input sequence: GATCTTTCTAAAGATC ((((((....))))))
Group: true
//
Input sequence: GGGAGCCGAAAGGCCCC (((.(((....))))))
Group: true
//
Input sequence: GCGTCGCGAAAGCGCTGC ((..(((....)))..))
Group: true
//
Input sequence: GCCCACCCGAAAGGGGGC (((..(((....))))))
Group: true
//
Input sequence: GTTGTAGGAAACTATGAC ((..(((....)))..))
Group: false
//
Input sequence: GATCAACCAGTTGATC ((((((....))))))
Group: true
//
Input sequence: GTTGTCGCGAAAGCGAAC (((..(((....))))))
Group: true
//
Input sequence: CGGGCGGAAACGCTACCG ((((((....)))..)))
Group: true

====

- Measurement protocol: melting temperature; fluorescence melt of hairpins on a sequencing array, two-state fit, raised by 9.35 °C to match UV melts
- Conditions used: sodium 0.088 M
Label scheme for Tm: lower than 60 °C is -1, 60 °C and above is 1.

Input sequence: GGTGTGGAAACACACC ((((((....))))))
Group: 1
//
Input sequence: ACGCAGAAATGCGT (((((....)))))
Group: -1
//
Input sequence: GATCGCCTAGCGATC ((((((...))))))
Group: 1
//
Input sequence: GGAGATCGAAAGATGTCC (((.(((....))).)))
Group: -1
//
Input sequence: GCCTTACCGAAAGGTGGC (((..(((....))))))
Group: -1

====

- Measurement protocol: melting temperature; fluorescence melt of hairpins on a sequencing array, two-state fit, raised by 9.35 °C to match UV melts
- Conditions used: sodium 0.088 M
# if measured Tm < 50 °C: 1  # else: -1

Input sequence: GTAAAGCGAAAGCTCTAC (((.(((....))).)))
Group: 1
--
Input sequence: GATCGTGGAACGATC ((((((...))))))
Group: -1
--
Input sequence: GAAAACGGAAACGCTTTC ((((.((....)).))))
Group: 1
--
Input sequence: GGGGGAGGAAACCCCCCC (((((.(....).)))))
Group: -1
--
Input sequence: GCTCGGCGAAAGCGGGGC ((.(.((....)).).))
Group: -1
--
Input sequence: GCGAGCATCGC ((((...))))
Group: -1
--
Input sequence: GCCCATCGAAAGATAGGC (((.(((....))).)))
Group: 1
--
Input sequence: GTCATGTCGAAAGACGAC (((..(((....))))))
Group: 1
--
Input sequence: GATCTCTTGGGAGATC ((((((....))))))
Group: -1
--
Input sequence: GCGGACGAAAGTCGCCGC ((((((....)))..)))
Group: -1
--
Input sequence: CGTAGCGGAAACGCCACG (((.(((....))).)))
Group: 1
--
Input sequence: GTCCCCGGAAACGGAGAC (((.(((....))).)))
Group: 1
--
Input sequence: GCGTCCCGACGC ((((....))))
Group: -1
--
Input sequence: TTACTGAAAAGTAA (((((....)))))
Group: 1
--
Input sequence: GGTCAAGAAATTGACC ((((((....))))))
Group: -1
--
Input sequence: GATGTCCCGAAAGGGATC (((..(((....))))))
Group: 1
--
Input sequence: GTTTTCCGAAAGGAGAAC (((.(((....))).)))
Group: 1
--
Input sequence: GTTGTCGGAAACGGTAAC (((..((....))..)))
Group: 1
--
Input sequence: GACCTAGGAAACCAGGTC (((((.(....).)))))
Group: 1
--
Input sequence: GATCCATCTTTGGATC ((((((....))))))
Group: -1
--
Input sequence: GGTCTCGGAAACAAGACC (((((.(....).)))))
Group: 1
--
Input sequence: GTATCTCGAAAGAGTAC (((.(((....))))))
Group: 1
--
Input sequence: GCATTGGGAAACCAATGC (((((((....)))))))
Group: -1
--
Input sequence: GATCGCACCTGCGATC ((((((....))))))
Group: -1
--
Input sequence: GCTAACGGAAACGTCAGC (((.(((....))).)))
Group: 1
--
Input sequence: GCTCGGCGAAAGCTGCGC ((.(.((....)).).))
Group: -1
--
Input sequence: GTTGGCGGAAACGCTGAC ((..(((....)))..))
Group: 1
--
Input sequence: GCATCCGAAAGGAATGC ((((((....))).)))
Group: -1
--
Input sequence: GCCTGAGGAAACTCGGGC (((.(((....))).)))
Group: -1
--
Input sequence: GATCTTGCGCAAGATC ((((((....))))))
Group: -1
--
Input sequence: GGTGGGGGAAACCCTACC (((.(((....))).)))
Group: -1
--
Input sequence: GATCGTTCCACGATC ((((((...))))))
Group: -1
--
Input sequence: GGGCCTGGAAACAAGCCC ((((.((....)).))))
Group: 1
--
Input sequence: GGAGAACGAAAGTTATCC (((.(((....))).)))
Group: -1
--
Input sequence: GAGAGTGGAAACACTCTC (((((((....)))))))
Group: -1
--
Input sequence: GCGGGGACCCGC ((((....))))
Group: -1
--
Input sequence: GCCACGCGAAAGCGTCGC ((.((((....)))).))
Group: -1
--
Input sequence: GCCTCCGGAAACGGGGGC (((.(((....))).)))
Group: -1
--
Input sequence: ACAGTGAAAACTGT (((((....)))))
Group: 1
--
Input sequence: GATCCGGTAGCGGATC ((((((....))))))
Group: -1
--
Input sequence: GACAACGAAAGTTTTGTC ((((((....)))..)))
Group: 1
--
Input sequence: GATCACGAAAGTGTATC ((((((....))).)))
Group: 1
--
Input sequence: GTAGAGGGAAACTTCTAC (((((.(....).)))))
Group: 1

The reported measurements were obtained from the array DNA melting data of Ke et al. (doi:10.1101/2024.01.08.574731).
